test system: hTERT-BJ; assay: Induction of autophagy in human hTERT-BJ cells transformed with hTert, small t, shRNAs against p53 and pRb and H-RasV12-ER assessed as increase in LC3-2 to LC3-1 ratio at 5 uM after 24 hrs by immunoblot analysis relative to control; type: functional
Please go through the items and note down their fold change (FC).
One number for each entry.

>  <chemical_string>
N#C/C(=C\c1cccc2cnccc12)c1c[nH]c2ccc(Cl)cc12

>  <value_kind>
fold change (FC)

>  <obs_value>
2

$$$$

For the 3 compounds below, give their fold change (FC) values.
1. COCCOc1ccc2[nH]cc(/C(C#N)=C/c3cccc4cnccc34)c2c1
2. N#C/C(=C\c1cncc2cnccc12)c1c[nH]c2ccccc12
3. COc1ccc2[nH]cc(/C(C#N)=C/c3cccc4cnccc34)c2c1

1. 3.2
2. 1
3. 3.2

// for each compound in input: emit fold change (FC)
1. NC(=O)/C(=C\c1cccc2cnccc12)c1c[nH]c2ccccc12
2. N#C/C(=C\c1ccnc2ccccc12)c1c[nH]c2ccccc12
3. N#C/C(=C\c1cccc2cnccc12)c1c[nH]c2ccc(CN3CCCC3)cc12
4. N#C/C(=C/c1cccc2cnccc12)c1nc2ccccc2[nH]1

1: 0.6; 2: 0.4; 3: 3.3; 4: 1.2

// input: 2 compounds below; output: fold change (FC) for each
1. N#C/C(=C\c1cccc2cnccc12)c1c[nH]c2ccc([N+](=O)[O-])cc12
2. N#C/C(=C\c1cccc2cnccc12)c1c[nH]c2cc(CN3CCCC3)ccc12

0.6
5.7
